Target: Acetylcholinesterase (Bos taurus)
Sequence (P23795 whole entry): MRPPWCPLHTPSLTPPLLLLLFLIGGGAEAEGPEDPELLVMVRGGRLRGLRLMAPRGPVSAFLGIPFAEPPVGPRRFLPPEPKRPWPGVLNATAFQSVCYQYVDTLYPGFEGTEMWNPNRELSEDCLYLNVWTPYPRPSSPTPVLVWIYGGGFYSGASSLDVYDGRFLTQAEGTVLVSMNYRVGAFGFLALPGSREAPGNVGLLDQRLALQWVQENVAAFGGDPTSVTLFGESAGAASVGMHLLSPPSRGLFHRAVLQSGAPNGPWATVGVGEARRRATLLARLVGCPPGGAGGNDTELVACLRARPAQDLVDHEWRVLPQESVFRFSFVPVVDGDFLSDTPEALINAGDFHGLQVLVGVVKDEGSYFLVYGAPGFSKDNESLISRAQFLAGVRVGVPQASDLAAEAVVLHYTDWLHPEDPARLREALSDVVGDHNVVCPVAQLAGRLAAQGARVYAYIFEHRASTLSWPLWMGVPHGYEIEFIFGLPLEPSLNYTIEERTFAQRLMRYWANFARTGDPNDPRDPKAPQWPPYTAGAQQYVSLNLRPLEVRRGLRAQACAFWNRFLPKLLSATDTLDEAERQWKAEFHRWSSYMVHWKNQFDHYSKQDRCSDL
Assay: Dissociation constant for the inhibition of fetal bovine serum acetylcholinesterase was determined..
pKi: −log10 of the molar value.
Recorded pKi values for a group of molecules are listed next.
endpoint: pKi

{"molecule": "C/C=C1\\[C@H]2C=C(C)C[C@]1(N)c1ccc(=O)[nH]c1C2 (stereo in doubt; form 1) [HUPERZINE A]", "measurement": 7.63}
{"molecule": "C/C=C1\\[C@H]2C=C(C)C[C@]1(N)c1ccc(=O)[nH]c1C2 (stereo in doubt; form 2) [HUPERZINE A]", "measurement": 8.23}
{"molecule": "C/C=C1\\C2C=C(C)C[C@]1(N)c1ccc(O)nc1C2(C)C (mixture of isomers)", "measurement": 7.78}
